All figures here come from PubChem BioAssay AID610.

assay_target: Nuclear receptor ROR-alpha (Homo sapiens) (UniProt P35398)
Sequence (P35398 whole entry, looked up): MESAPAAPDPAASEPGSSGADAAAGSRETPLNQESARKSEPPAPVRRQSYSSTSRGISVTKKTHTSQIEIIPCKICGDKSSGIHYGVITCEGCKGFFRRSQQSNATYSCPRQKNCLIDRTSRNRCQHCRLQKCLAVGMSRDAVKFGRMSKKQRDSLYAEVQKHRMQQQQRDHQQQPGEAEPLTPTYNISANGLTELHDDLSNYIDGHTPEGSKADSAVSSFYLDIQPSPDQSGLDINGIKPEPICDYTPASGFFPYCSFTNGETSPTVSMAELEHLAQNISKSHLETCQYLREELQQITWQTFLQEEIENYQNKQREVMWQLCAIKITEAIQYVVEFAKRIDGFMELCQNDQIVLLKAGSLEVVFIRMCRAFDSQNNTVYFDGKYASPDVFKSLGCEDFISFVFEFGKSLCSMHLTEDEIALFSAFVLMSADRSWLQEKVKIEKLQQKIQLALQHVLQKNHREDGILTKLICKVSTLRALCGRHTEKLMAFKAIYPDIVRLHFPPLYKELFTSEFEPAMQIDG
assay_info: inhibitors of orphan receptor RORA, dose response, cell-based (AID 610)
stated_conditions: cell-based RORA reporter, inhibition
Activity calls are given as the source filed them. No rule for the calls is given here.
Parameter call: string, one of class 1 (active), class 0 (inactive)

Observe how each entry below is paired with its result.
>>> answer_label("COc1cccc2sc(Nc3nc(-c4ccccn4)cs3)nc12")
"class 1"
>>> answer_label("CC(=O)CC1OC(=O)C(Br)=C1NCc1ccccc1 (centres undefined)")
"class 0"
>>> answer_label("COc1cc(/C=N/O)ccc1OCc1ccc(C(=O)O)cc1")
"class 1"
>>> answer_label("Cc1ccc(C(=O)/C=C/Nc2ccccn2)cc1")
"class 1"
>>> answer_label("O=C(/C=C\\Nc1ccccn1)c1ccc(Cl)cc1")
"class 1"
>>> answer_label("O=C(O)CCCCCN1C(=O)CSC1=S")
"class 0"
>>> answer_label("COC(=O)C1=C(CN2CCCc3ccccc32)NC(=O)NC1c1ccc(F)cc1 (centres undefined)")
"class 1"
>>> answer_label("O=C(/C=C\\Nc1ccc2c(c1)OCO2)c1ccccn1")
"class 1"

Recorded test outcome, item O=S(=O)(c1ccc2c(c1)C(=NO)c1cc(S(=O)(=O)N3CCCCC3)ccc1-2)N1CCCCC1
class 1
